Target: T1, human neuropeptide Y2 receptor (human, UniProt P49146 1-381)
T1 sequence (looked up): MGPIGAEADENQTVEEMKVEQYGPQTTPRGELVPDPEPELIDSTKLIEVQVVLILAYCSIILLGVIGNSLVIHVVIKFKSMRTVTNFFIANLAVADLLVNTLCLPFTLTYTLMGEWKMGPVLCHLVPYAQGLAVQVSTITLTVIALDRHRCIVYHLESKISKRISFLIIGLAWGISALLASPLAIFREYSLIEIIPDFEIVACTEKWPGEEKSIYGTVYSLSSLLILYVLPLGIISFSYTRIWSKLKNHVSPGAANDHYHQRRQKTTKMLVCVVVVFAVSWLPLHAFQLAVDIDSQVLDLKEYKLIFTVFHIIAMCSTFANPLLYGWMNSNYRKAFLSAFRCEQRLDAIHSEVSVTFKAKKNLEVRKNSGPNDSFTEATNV
Assay: cell-based or functional assay
Give measured EC50 CreLuc hNPY2R 100% hP for each item. Keep answers brief.
// units = nM; emit number, no label

Sample YXEGTFTSDYSIXLEAQAQXAFVEWLIKGGPSSGASLRHYYNWLTRQRY (Aib at 2, 13, 20; K28 side chain: C20DA-gGlu-gGlu-gGlu-gGlu-gGlu-gGlu-eLys; C-terminal NH2) [Compound 102] — what was its EC50 CreLuc hNPY2R 100% hP?
80.7

Sample YXEGTFTSDYSIXLEKQAQXAFVEWLIKGGPSSGASXRHYYNWLTRQRY (Aib at 2, 13, 20, 37; K28 side chain: C20DA-gGlu-gGlu-gGlu-gGlu-gGlu-gGlu-eLys; C-terminal NH2) [Compound 118] — what was its EC50 CreLuc hNPY2R 100% hP?
26.2

Sample YXEGTFTSDYSIXLEKQAQXAFVEWLIKGGPSSGASLRHYXNWLTRQRY (Aib at 2, 13, 20; Tle at 41; K28 side chain: C20DA-gGlu-gGlu-gGlu-gGlu-gGlu-gGlu-eLys; C-terminal NH2) [Compound 133] — what was its EC50 CreLuc hNPY2R 100% hP?
41.4
